- Test system: HIV
- method_summary: MT4 assay: antiviral HIV activity (cell protection, cell titer glo readout at 96 hours)
- Format: cell-based
- conditions_used: Human immunodeficiency virus 1, MT4, 96 h, MT4 cells, cell titer glo readout at 96 hours, 10 point dose response; read-out: HIV MT4 Assay IC50
endpoint_name: IC50 (nM)
Express your answer in nM, writing the number without its unit.

>  <compound>
Cc1nc2c(cc(-c3ccnc(C(=O)N4CCN(c5ccccc5)CC4)c3)n2C)c(-c2cc(F)c3c(c2C)CCCO3)c1[C@H](OC(C)(C)C)C(=O)O (atropisomer, axis not shown; (M))

>  <unit_label>
nM

>  <IC50>
45.3

$$$$
>  <compound>
Cc1nc2c(cc(-c3ccnc(-c4ccc(N5CCCC5)nc4)c3)n2C)c(-c2cc(F)c3c(c2C)CCCO3)c1[C@H](OC(C)(C)C)C(=O)O (atropisomer, axis not shown)

>  <unit_label>
nM

>  <IC50>
4.8

$$$$
>  <compound>
Cc1nc2c(cc(-c3nnc(N4CCN(C5CCOCC5)[C@H](C)C4)o3)n2C)c(-c2cc(F)c3c(c2C)CCCO3)c1[C@H](OC(C)(C)C)C(=O)O

>  <unit_label>
nM

>  <IC50>
6.3

$$$$

Query (compound): Cc1nc2c(cc(C(=O)N3CCN(C(=O)OCc4ccccc4)CC3)n2C)c(-c2cc(F)c3c(c2C)CCCO3)c1[C@H](OC(C)(C)C)C(=O)O ; field requested: IC50
26.3

Any idea what IC50 was measured for Cc1nc2c(cc(C(=O)NC3CCCCC3)n2C)c(-c2cc(F)c3c(c2C)CCCO3)c1[C@H](OC(C)(C)C)C(=O)O ?
12.1

Query (compound): Cc1nc2c(cc(-c3nnc(N4CCN(C5COC5)CC4)o3)n2C)c(-c2cc(F)c3c(c2C)CCCO3)c1[C@H](OC(C)(C)C)C(=O)O ; field requested: IC50
40.6
